B1: RAB22A (parent)
chain: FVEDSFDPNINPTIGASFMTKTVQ

variants of: B1; experiment: protein stability index of a GFP-peptide fusion (GPS, HEK-293T) (PSI 1-6); higher = more stable; settings: c terminus: a fixed tail appended;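 note: lentivirally expressed fusions sorted by FACS into six bins by GFP to DsRed ratio, PSI derived from sequencing read proportions per bin multiplied by bin number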
Would you kindly list protein stability index for each of these variants?
Lab note: jot the number down without any unit.

Ask: May I ask what protein stability index has been recorded for FVEDSFDNNINPTIGASFMTKTVQ [P8N] ?
Reply: 2.35

Ask: Given the variant FVEDSFDPFINPTIGASFMTKTVQ [N9F] , what is its reported protein stability index?
Reply: 1.92

Ask: Fill in: protein stability index of FVEDSFDPNINPTIGASFMTKTTQ [V23T] is ___
Reply: 2.78

Ask: Entry FVEDSFDPNIKPTIGASFMTKTVQ [N11K] has what protein stability index?
Reply: 2.47

Ask: Which protein stability index value belongs to FVENSFDPNINPTIGASFMTKTVQ [D4N] ?
Reply: 2.23

Ask: Look up protein stability index for this variant: FVRDSFDPNINPTIGASFMTKTVQ [E3R]
Reply: 2.54

Ask: What value of protein stability index has been recorded for this entry: FVEDSFDKNINPTIGASFMTKTVQ [P8K]
Reply: 2.13

Ask: Using the record for FVEDSFDPNINPTIGASGMTKTVQ [F18G] , report its protein stability index.
Reply: 3.35

Ask: Find the recorded protein stability index belonging to FVEDSFDPNINETIGASFMTKTVQ [P12E] and report it.
Reply: 2.57

Ask: Give its protein stability index value. Item: FVEDSFDPNINPTIWASFMTKTVQ [G15W]
Reply: 1.85

Ask: Given FVEDSFDPNINPTIGASFTTKTVQ [M19T] , state its recorded protein stability index.
Reply: 2.81

Ask: # query: protein stability index of entry FVEDSFDPNINPTIGASFMTKTVC [Q24C]
Reply: 1.89

Ask: Bench note: what protein stability index did WVEDSFDPNINPTIGASFMTKTVQ [F1W] show?
Reply: 3.41

Ask: # get_value(readout='protein stability index', item= FVEDSFDPNINITIGASFMTKTVQ [P12I] )
Reply: 1.82

Ask: Look up protein stability index for this variant: FVEDSFDPNINPTIGASFFTKTVQ [M19F]
Reply: 1.73

Ask: Fill in: protein stability index of FVEDQFDPNINPTIGASFMTKTVQ [S5Q] is ___
Reply: 2.65

Ask: What measured protein stability index goes with FVEDSFDPNINMTIGASFMTKTVQ [P12M] ?
Reply: 1.89

Ask: Using the record for FVEDSFDPNINPFIGASFMTKTVQ [T13F] , report its protein stability index.
Reply: 1.59

Ask: What does the data say about its protein stability index? Entry: FVEDAFDPNINPTIGASFMTKTVQ [S5A]
Reply: 2.16

Ask: Given the variant FVEDSFDPNINPTLGASFMTKTVQ [I14L] , what is its reported protein stability index?
Reply: 2.14

Ask: Field request: protein stability index | item: FVEDSFDPNIMPTIGASFMTKTVQ [N11M]
Reply: 2.14

Ask: // returns reported protein stability index for input FVEDKFDPNINPTIGASFMTKTVQ [S5K]
Reply: 2.1
